# Target Or Test System: PmrA (Salmonella enterica, UniProt A0A0F6BAF1)
# Sequence (A0A0F6BAF1 entry or part of it): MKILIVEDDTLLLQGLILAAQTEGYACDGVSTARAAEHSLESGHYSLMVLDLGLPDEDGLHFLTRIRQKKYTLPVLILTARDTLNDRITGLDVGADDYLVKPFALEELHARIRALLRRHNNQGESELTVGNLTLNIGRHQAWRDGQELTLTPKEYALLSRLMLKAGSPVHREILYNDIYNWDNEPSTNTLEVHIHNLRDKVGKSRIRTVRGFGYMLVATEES
Measured Metric: pKd
The read-out pKd is expressed as -log10 of concentration in moles per litre.

Entry C=CCc1ccc(O)c(-c2cc(CC=C)ccc2O)c1 — recorded pKd = 5.70
